system name: dopamine D2 receptor (Mus musculus, UniProt P61168)
Sequence (P61168 whole entry): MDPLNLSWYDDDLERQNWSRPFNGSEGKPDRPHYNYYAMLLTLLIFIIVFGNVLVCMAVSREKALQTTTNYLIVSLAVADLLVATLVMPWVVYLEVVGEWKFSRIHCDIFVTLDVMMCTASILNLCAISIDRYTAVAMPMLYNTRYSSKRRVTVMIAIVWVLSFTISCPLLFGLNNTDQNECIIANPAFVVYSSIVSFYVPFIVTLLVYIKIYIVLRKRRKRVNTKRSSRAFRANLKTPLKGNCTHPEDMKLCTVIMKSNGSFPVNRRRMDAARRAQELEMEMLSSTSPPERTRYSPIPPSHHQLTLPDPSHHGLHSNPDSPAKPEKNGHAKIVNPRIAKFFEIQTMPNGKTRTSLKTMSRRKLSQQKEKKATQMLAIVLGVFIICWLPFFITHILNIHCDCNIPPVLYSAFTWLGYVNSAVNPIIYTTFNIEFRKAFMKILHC
protocol description: biochemical
Assay type: biochemical
measurement parameters: a2 A50 / D2 A50
Lab note: anything with Specificity Ratio (a2 A50/D2 A50) at or over 1000 counts as Criterion met; the rest go in Criterion not met.

molecule="CCN(CCC1CCCO1)[C@H]1CCc2c(O)cccc2C1 (stereo partly drawn) [Example 25]" assigned_class="Criterion met"
molecule="CCCN(CCC1CCCO1)[C@H]1CCc2c(O)cccc2C1 (stereo partly drawn) [Example 19]" assigned_class="Criterion met"
molecule="CCCN(CCC1CCCCO1)[C@H]1CCc2c(O)cccc2C1 (stereo partly drawn) [Example 23]" assigned_class="Criterion met"

Challenge: Textbook exercise: given the entry CCCN(CCC1CCOC1)[C@H]1CCc2c(O)cccc2C1 (stereo partly drawn) [Example 24] , state whether its Specificity Ratio (a2 A50/D2 A50) is greater than or equal to 1000.
Response given: Criterion not met

Challenge: Textbook exercise: given the entry CCCN(CC1CCCO1)[C@H]1CCc2c(O)cccc2C1 (stereo partly drawn) [Example 22] , state whether its Specificity Ratio (a2 A50/D2 A50) is greater than or equal to 1000.
Response given: Criterion met

Challenge: Textbook exercise: given the entry CCCN(CC1CCOC1)[C@H]1CCc2c(ccc(O)c2O)C1 (stereo partly drawn) [Example 15] , state whether its Specificity Ratio (a2 A50/D2 A50) is greater than or equal to 1000.
Response given: Criterion not met

Challenge: Textbook exercise: given the entry CCCN(CC1CCCCO1)[C@H]1CCc2c(O)cccc2C1 (stereo partly drawn) [Example 20] , state whether its Specificity Ratio (a2 A50/D2 A50) is greater than or equal to 1000.
Response given: Criterion not met

Challenge: Textbook exercise: given the entry CCCN(CCOC1CCCC1)[C@H]1CCc2c(ccc(O)c2O)C1 [Example 6] , state whether its Specificity Ratio (a2 A50/D2 A50) is greater than or equal to 1000.
Response given: Criterion not met

Challenge: Textbook exercise: given the entry CCCN(CCOC(C)C)[C@H]1CCc2c(ccc(O)c2O)C1.Cl [Example 1] , state whether its Specificity Ratio (a2 A50/D2 A50) is greater than or equal to 1000.
Response given: Criterion met

Challenge: Textbook exercise: given the entry CCCN(CCOC1CCC1)[C@H]1CCc2c(O)cccc2C1 [Example 18] , state whether its Specificity Ratio (a2 A50/D2 A50) is greater than or equal to 1000.
Response given: Criterion met
